FYI, the data here is from patent US11130756B2.

Listed molecules paired with reported IC50
Biological target: human TLR9 (Homo sapiens, UniProt Q9NR96)
Sequence (Q9NR96 26-1032): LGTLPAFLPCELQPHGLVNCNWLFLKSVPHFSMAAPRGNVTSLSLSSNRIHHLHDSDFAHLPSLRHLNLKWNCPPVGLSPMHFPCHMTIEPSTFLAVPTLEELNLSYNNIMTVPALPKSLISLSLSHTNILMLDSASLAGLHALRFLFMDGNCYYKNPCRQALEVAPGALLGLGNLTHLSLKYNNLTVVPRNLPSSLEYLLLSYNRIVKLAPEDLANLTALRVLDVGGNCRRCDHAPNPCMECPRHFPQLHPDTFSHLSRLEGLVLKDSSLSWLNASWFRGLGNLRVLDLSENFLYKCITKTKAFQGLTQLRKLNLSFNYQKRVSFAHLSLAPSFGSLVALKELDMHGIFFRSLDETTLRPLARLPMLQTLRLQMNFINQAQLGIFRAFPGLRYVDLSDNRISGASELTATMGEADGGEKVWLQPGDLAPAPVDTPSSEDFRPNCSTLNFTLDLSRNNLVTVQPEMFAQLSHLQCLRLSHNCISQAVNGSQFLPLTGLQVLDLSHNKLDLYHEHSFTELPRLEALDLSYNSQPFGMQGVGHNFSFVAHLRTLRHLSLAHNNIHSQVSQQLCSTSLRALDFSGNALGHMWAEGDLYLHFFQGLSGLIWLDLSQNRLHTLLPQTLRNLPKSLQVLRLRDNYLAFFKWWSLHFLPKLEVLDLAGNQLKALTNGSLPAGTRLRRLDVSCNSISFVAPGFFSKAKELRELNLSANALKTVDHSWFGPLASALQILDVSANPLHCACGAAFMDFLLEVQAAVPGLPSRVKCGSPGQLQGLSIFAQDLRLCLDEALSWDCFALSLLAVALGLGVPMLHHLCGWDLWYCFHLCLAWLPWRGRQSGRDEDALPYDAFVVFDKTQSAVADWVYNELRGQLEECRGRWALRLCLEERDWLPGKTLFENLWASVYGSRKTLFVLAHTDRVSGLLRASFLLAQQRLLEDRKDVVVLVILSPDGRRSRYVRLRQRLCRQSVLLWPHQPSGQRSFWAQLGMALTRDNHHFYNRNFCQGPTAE
Assay: TLR9 inhibition reporter assay (HEK-Blue, SEAP)
Conditions: HEK-Blue cells overexpressing human TLR9, ODN2006 5 nM, 22 hour incubation
parameterMeasured: IC50 (nM)

>>> number("Cc1c(-c2[nH]c3ccc(C4CCN(C5CCOC(C)(C)C5)CC4)cc3c2C(C)C)cn2cnnc2c1C (stereo not shown) [Example 85]")
1990
>>> number("Cc1c(-c2[nH]c3ccc(C4CCNCC4)cc3c2C(C)C)ccc2nncn12 [Example 5]")
1240
>>> number("Cc1c(-c2[nH]c3ccc(C4CCN(C5CCC(F)(F)CC5)CC4)cc3c2C(C)C)cn2cnnc2c1C [Example 101]")
1440
>>> number("Cc1c(-c2[nH]c3ccc(C4CCNCC4)cc3c2C(C)C)cn2cnnc2c1C [Example 8]")
1880
>>> number("Cc1cc(-c2[nH]c3ccc(C4CCN(CCS(C)(=O)=O)CC4)cc3c2C(C)C)cn2cnnc12 [Example 35]")
5840
>>> number("Cc1c(-c2[nH]c3ccc(C4CCN(CCN5CCCC5=O)CC4)cc3c2C(C)C)cn2cnnc2c1C [Example 57]")
1300
>>> number("Cc1c(-c2[nH]c3ccc(C4CCN(Cc5ncn(C)n5)CC4)cc3c2C(C)C)cn2cnnc2c1Cl [Example 47]")
2070
>>> number("Cc1cc(-c2[nH]c3ccc(C4CCN(Cc5ccn(C)n5)CC4)cc3c2C(C)C)cn2c(C)nnc12 [Example 71]")
1130
>>> number("Cc1c(-c2[nH]c3ccc(C4CCN(C(C)C)CC4)cc3c2C(C)C)cn2cnnc2c1C [Example 99]")
2220
>>> number("Cc1cc2nncn2cc1-c1[nH]c2ccc(C3CCN(C4COC4)CC3)cc2c1C(C)C [Example 66]")
18600
>>> number("Cc1c(-c2[nH]c3ccc(C4CCN(Cc5cn(C)nn5)CC4)cc3c2C(C)C)cn2cnnc2c1C [Example 83]")
875
>>> number("Cc1c(-c2[nH]c3ccc(C4CCN(C5COC5)CC4)cc3c2C(C)C)cn2cnnc2c1C [Example 75]")
23800
>>> number("CNC(=O)CN1CCC(c2ccc3[nH]c(-c4ccc5nnc(C)n5c4)c(C(C)C)c3c2)CC1 [Example 17]")
2770
>>> number("Cc1c(-c2[nH]c3ccc(C4CCN(CC5(C)COC5)CC4)cc3c2C(C)C)cn2cnnc2c1C [Example 79]")
3530
>>> number("Cc1cc(-c2[nH]c3ccc(C4CCN(CCCC(F)(F)F)CC4)cc3c2C(C)C)cn2cnnc12 [Example 36]")
919
>>> number("Cc1nnc2ccc(-c3[nH]c4ccc(C5CCN(C6COC6)CC5)cc4c3C(C)C)cn12 [Example 67]")
10100
>>> number("COCc1nnc2ccc(-c3[nH]c4ccc(C5CCN(CC(=O)N(C)C)CC5)cc4c3C(C)C)cn12 [Example 38]")
3120
>>> number("Cc1c(-c2[nH]c3ccc(C4CC(C)N(CC5(C)COC5)C(C)C4)cc3c2C(C)C)cn2cnnc2c1C (single isomer, unassigned) [Example 113]")
4830
>>> number("Cc1c(-c2[nH]c3ccc(C4CCN(C5CCOC5)CC4)cc3c2C(C)C)cn2cnnc2c1C (single isomer, unassigned) [Example 102]")
5460
>>> number("COc1cc(-c2[nH]c3ccc(C4CCN(C)CC4)cc3c2C(C)C)cn2cnnc12 [Example 96]")
376
>>> number("Cc1c(-c2[nH]c3ccc(C4C[C@H]5CC[C@@H](C4)N5CC4(C)COC4)cc3c2C(C)C)cn2cnnc2c1C (single isomer, unassigned) [Example 121]")
4840
>>> number("Cc1c(-c2[nH]c3ccc(C4CCN(Cc5ncn(C)n5)CC4)cc3c2C(C)C)cn2cnnc2c1C [Example 45]")
2310
